tested on: NCI-H226; test: NCI tumour cell line growth inhibition, 48 h
Activity calls are given as the source filed them. Rule as the data show it: active = GI50 up to about 1.1 µM and inactive = higher.
// allowed return values: active, inactive

CNC(=S)N/N=C(C)\C(=N/NC(=S)NC)c1ccccc1	inactive
Cc1ccc([N+](=O)[O-])cc1S(=O)(=O)Nc1ccc(C(=O)/C=C/c2cccs2)cc1	inactive
CCOC(=O)Oc1cc2c(ccn2C)c2c1c1ccccc1n2C(=O)OCC	inactive
OC1CCC(COC(c2ccccc2)(c2ccccc2)c2ccccc2)O1 (stereo not drawn)	inactive
O=C(Nc1sccc1S(=O)(=O)c1ccc(Cl)cc1)c1ccc(Cl)cc1Cl	inactive

Task: Given `COC(=O)c1cc(NC(=O)c2cc(NC(=O)c3cc([N+](=O)[O-])cn3C)cn2C)cn1C` , state the outcome it received in this test.
Output: inactive

Task: For `CCCCOCCOCCOC1=CC(=O)c2c(O)ccc(O)c2C1=O` , which call appears in the assay record?
Output: inactive

Task: Test call, this compound: C=CC(=C)CCC(Br)C(C)(C)Cl (stereo not drawn)
Output: inactive

Task: Each compound tested received a call. Report the one for `CN1CCN(CCCCN2c3ccccc3Sc3ccc(N=[N+]=[N-])cc32)CC1` .
Output: inactive

Task: Test call for this compound, please: Cc1cc(O)nc(NN2C(Cl)C(=O)C2c2ccccc2O)n1 (stereo not drawn)
Output: inactive

Task: Just curious, what result did `Oc1ccc(Cl)cc1Cc1cc(Cl)cc(Cc2cc(Cl)ccc2O)c1O` get here?
Output: inactive

Task: Status in this test for CC(=N)OC1CC2CCC1(C)C2(C)C (stereo not drawn) ?
Output: inactive

Task: GET /call?item= CCN1CC(C)Cn2c(=O)[nH]c3cc(Br)cc1c32 (stereo not drawn) returns the recorded outcome of this test.
Output: inactive

Task: Which outcome did this test record for the compound Nc1nc(O)nc2c1ncn2C1OC(CO)C(O)C1O (stereo not drawn) ?
Output: inactive

Task: Short answer needed: outcome of this test for `Nc1nc(=O)[nH]c2c1cnn2COCCO` ?
Output: active

Task: Dear colleague, could you share the recorded outcome for CCCC1C(=O)Nc2cccc3ncn(c23)C1=O (stereo not drawn) when you have a moment?
Output: inactive

Task: For `C/C(=N\Nc1ccc([N+](=O)[O-])cc1)C(=O)N(C)Nc1ccccc1` , what call appears in the results of this test?
Output: inactive

Task: Write down the call the test reported for this compound. Item: `O=C1C=C(NCCc2ccc(O)cc2)C(=O)C=C1NCCc1ccc(O)cc1`
Output: inactive
